Value source: ChEMBL document CHEMBL3286118

Experiment: Cytotoxicity against human HeLaS3 cells assessed as cell viability after 24 to 72 hrs by MTT assay
Assay type: functional, cell-based
Conditions: HeLa S3
As shown below, each of these compounds has a reported pIC50 value.
Keep in mind that pIC50 stands for -log10 of concentration in molar terms.

These recorded examples may help you get a feel for the data.
structure_smiles_string=Cc1c2c[n+](CCOCCNC(=O)N(C)N=O)ccc2c(C)c2c1c1cc(O)ccc1n2C value_type=pIC50 result_number=4.74
structure_smiles_string=CNC(=O)NCCC[n+]1ccc2c(C(=O)OC)c3[nH]c4ccccc4c3c(C)c2c1 value_type=pIC50 result_number=4.62
structure_smiles_string=Cc1c2c[n+](CCOCCN)ccc2c(C)c2c1c1cc(O)ccc1n2C value_type=pIC50 result_number=4.75
structure_smiles_string=Cc1c2cc[n+](C)cc2c(C)c2c1[nH]c1ccccc12 value_type=pIC50 result_number=5.54
structure_smiles_string=COC(=O)c1c2cc[n+](CCCNC(=O)N(C)N=O)cc2c(C)c2c1[nH]c1ccccc12 value_type=pIC50 result_number=5.89

Shifting focus to the compound that follows.
Req: Quick one: pIC50 for COC(=O)c1c2cc[n+](CCN)cc2c(C)c2c1[nH]c1ccccc12 ?
Resp: 5.24
